Biological target: Transient receptor potential cation channel subfamily V member 1 (Homo sapiens, UniProt Q8NER1)
Sequence (Q8NER1 whole entry): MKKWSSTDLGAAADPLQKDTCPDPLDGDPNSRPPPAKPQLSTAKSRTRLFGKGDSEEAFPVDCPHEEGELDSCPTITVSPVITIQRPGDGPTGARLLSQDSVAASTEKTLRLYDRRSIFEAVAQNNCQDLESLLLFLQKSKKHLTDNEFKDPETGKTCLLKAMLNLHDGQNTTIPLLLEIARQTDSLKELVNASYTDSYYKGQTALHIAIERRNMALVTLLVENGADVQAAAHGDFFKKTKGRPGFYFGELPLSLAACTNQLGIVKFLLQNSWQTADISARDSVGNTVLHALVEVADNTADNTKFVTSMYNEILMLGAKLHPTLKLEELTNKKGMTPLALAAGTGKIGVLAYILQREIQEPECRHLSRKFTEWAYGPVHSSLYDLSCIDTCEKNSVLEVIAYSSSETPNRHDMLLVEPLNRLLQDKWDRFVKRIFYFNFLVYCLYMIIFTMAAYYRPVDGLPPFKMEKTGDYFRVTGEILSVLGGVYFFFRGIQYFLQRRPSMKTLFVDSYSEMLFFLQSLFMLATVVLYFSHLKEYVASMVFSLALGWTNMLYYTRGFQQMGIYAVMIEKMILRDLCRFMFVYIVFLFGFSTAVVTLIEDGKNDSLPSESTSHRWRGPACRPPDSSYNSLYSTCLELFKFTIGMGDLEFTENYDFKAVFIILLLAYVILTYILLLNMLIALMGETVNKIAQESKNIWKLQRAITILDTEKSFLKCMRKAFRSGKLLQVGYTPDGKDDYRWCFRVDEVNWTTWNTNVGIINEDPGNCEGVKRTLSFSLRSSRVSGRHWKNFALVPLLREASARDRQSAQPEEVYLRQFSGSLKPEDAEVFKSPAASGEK
Experiment: Agonist-enhancing activity in epsilon-epitope tagged TRPV1 receptor expressed in mouse NIH3T3 cells assessed as capsaicin-induced 45Ca2+ influx by microplate liquid scintillation counter
readout.name: EC50 (µM)
# output: bare number, implied unit µM

// solved cases for EC50 follow
compound: CCOC(=O)C1=C(C)NC(c2ccc(F)cc2)=C(C(=O)OCC)C1CC (racemic)
readout.name: EC50
reported.measurement: 29.2
//
compound: CCOC(=O)C1=C(c2ccccc2)N=C(C)/C(=C(/O)SCCOC)C1CC (stereo not given)
readout.name: EC50
reported.measurement: 21.3
//
compound: CCCC1C(C(=O)SCCc2ccccc2)=C(C)NC(c2ccccc2)=C1C(=O)OCC (racemic)
readout.name: EC50
reported.measurement: 27.6

Would you kindly share the measured EC50 for CCOC(=O)C1=C(C)NC(c2cccc(F)c2)=C(C(=O)OCC)C1CC (racemic) ? 26.7

Another: CCOC(=O)C1=C(C)NC(c2cccc(Cl)c2)=C(C(=O)OCC)C1CC (racemic) 17.1

Another: CCOC(=O)C1=C(c2ccc(F)cc2)NC(C)=C(C(=O)SCC)C1CC (racemic) 28.4

Another: CCOC(=O)C1=C(c2ccccc2)N=C(C)/C(=C(/O)SCC)C1CC (stereo not given) 28.1

Another: CCOC(=O)C1=C(c2ccc(F)cc2)NC(C)=C(C(=O)SCCc2ccccc2)C1CC (racemic) 51.6

Another: CCCC1C(C(=O)OCC)=C(c2ccccc2)N=C(C)/C1=C(/O)SCC (stereo not given) 22.4

Another: CCOC(=O)C1=C(c2cccc(F)c2)NC(C)=C(C(=O)SCC)C1CC (racemic) 21.8

* * *

Molecular target: Transient receptor potential cation channel subfamily V member 1 (Homo sapiens, UniProt Q8NER1)
Experiment: Agonist-enhancing activity in epsilon-epitope tagged TRPV1 receptor expressed in mouse NIH3T3 cells assessed as capsaicin-induced 45Ca2+ influx at 100 uM by microplate liquid scintillation counter relative to capsaicin alone
Assay type: functional, cell-based
Criterion: Emax meeting or surpassing 200%. Met: label 1. Not met: label 0.

Use these answered entries as a reference point.
molecule: CCOC(=O)C1=C(C)NC(c2ccc(F)cc2)=C(C(=O)OCC)C1CC (racemic)
assigned.category: label 1
--
molecule: CCCC1C(C(=O)SCCc2ccccc2)=C(C)NC(c2ccccc2)=C1C(=O)OCC (racemic)
assigned.category: label 1
--
molecule: CCOC(=O)C1=C(c2cccc(F)c2)NC(C)=C(C(=O)SCC)C1CC (racemic)
assigned.category: label 1
--
molecule: CCOC(=O)C1=C(c2ccc3ccccc3c2)NC(C)=C(C(=O)SCC)C1CC (racemic)
assigned.category: label 0
--
molecule: CCOC(=O)C1=C(c2ccccc2)N=C(C)/C(=C(/O)OCC)C1CC (stereo unspecified)
assigned.category: label 1
--
molecule: CCOC(=O)C1=C(C)NC(c2cccc(F)c2)=C(C(=O)OCC)C1CC (racemic)
assigned.category: label 1
--
molecule: CCOC(=O)C1=C(c2ccccc2)N=C(C)/C(=C(/O)SCCOC)C1CC (stereo unspecified)
assigned.category: label 1
--
molecule: CCOC(=O)C1=C(c2ccccc2F)NC(C)=C(C(=O)SCc2ccccc2)C1CC (racemic)
assigned.category: label 0

Decide: is the reported value of Emax for CCOC(=O)C1=C(c2ccccc2F)NC(C)=C(C(=O)SCCc2ccccc2)C1CC (racemic) equal to or greater than 200%? label 0

Another: CCCC1C(C(=O)SCC)=C(C)NC(c2cccc(Cl)c2)=C1C(=O)OCC (racemic) label 0

Another: CCOC(=O)C1=C(C)NC(c2cccc(Cl)c2)=C(C(=O)OCC)C1CC (racemic) label 1

Another: CCOC(=O)C1=C(C2CCCCC2)NC(C)=C(C(=O)SCC)C1CC (racemic) label 0

Another: CCOC(=O)C1=C(c2ccc(F)cc2)NC(C)=C(C(=O)SCCc2ccccc2)C1CC (racemic) label 1

Another: CCOC(=O)C1=C(c2ccccc2F)NC(C)=C(C(=O)SC(C)C)C1CC (racemic) label 0

Another: CCCC1=NC(c2ccccc2)=C(C(=O)OCC)C(CC)/C1=C(\O)SCC (stereo unspecified) label 0

Another: CCOC(=O)C1=C(c2ccc(F)cc2)NC(C)=C(C(=O)SCC)C1CC (racemic) label 1

Another: CCOC(=O)C1=C(c2ccccc2)N=C(CC)/C(=C(/O)SCC)C1CC (stereo unspecified) label 1

Another: CCOC(=O)C1=C(c2ccc([N+](=O)[O-])cc2)NC(C)=C(C(=O)SCCc2ccccc2)C1CC (racemic) label 0

Another: CCOC(=O)C1=C(c2ccc(F)cc2)NC(C)=C(C(=O)SCC)C1C1CC1 (racemic) label 0

* * *

Biological target: UniProtKB Q8NER1
Experiment: Agonist-enhancing activity in epsilon-epitope tagged TRPV1 receptor expressed in mouse NIH3T3 cells assessed as capsaicin-induced 45Ca2+ influx at 100 uM by microplate liquid scintillation counter relative to capsaicin alone
Format: functional, cell-based
Measured Emax by item
Number first, unit second: that is the form wanted.

compound: CCOC(=O)C1=C(c2ccccc2)N=C(C)/C(=C(/O)OCC)C1C(OC)OC (stereo not given)
readout.name: Emax
reported.measurement: 114%
--
compound: CCOC(=O)C1=C(c2ccc([N+](=O)[O-])cc2)NC(C)=C(C(=O)SCc2ccccc2)C1CC (racemic)
readout.name: Emax
reported.measurement: 98%
--
compound: CCCC1C(C(=O)OCC)=C(c2ccccc2)N=C(C)/C1=C(/O)SCC (stereo not given)
readout.name: Emax
reported.measurement: 364%

Would you kindly share the measured Emax for CCOC(=O)C1=C(c2ccc(C#N)cc2)NC(C)=C(C(=O)SCC)C1CC (racemic) ? 129%

Another: CCOC(=O)C1=C(c2ccccc2)N=C(C)/C(=C(/O)SCC)C1CC (stereo not given) 435%

* * *

Biological target: Transient receptor potential cation channel subfamily V member 1 (Rattus norvegicus) (UniProt O35433)
Sequence (O35433 whole entry): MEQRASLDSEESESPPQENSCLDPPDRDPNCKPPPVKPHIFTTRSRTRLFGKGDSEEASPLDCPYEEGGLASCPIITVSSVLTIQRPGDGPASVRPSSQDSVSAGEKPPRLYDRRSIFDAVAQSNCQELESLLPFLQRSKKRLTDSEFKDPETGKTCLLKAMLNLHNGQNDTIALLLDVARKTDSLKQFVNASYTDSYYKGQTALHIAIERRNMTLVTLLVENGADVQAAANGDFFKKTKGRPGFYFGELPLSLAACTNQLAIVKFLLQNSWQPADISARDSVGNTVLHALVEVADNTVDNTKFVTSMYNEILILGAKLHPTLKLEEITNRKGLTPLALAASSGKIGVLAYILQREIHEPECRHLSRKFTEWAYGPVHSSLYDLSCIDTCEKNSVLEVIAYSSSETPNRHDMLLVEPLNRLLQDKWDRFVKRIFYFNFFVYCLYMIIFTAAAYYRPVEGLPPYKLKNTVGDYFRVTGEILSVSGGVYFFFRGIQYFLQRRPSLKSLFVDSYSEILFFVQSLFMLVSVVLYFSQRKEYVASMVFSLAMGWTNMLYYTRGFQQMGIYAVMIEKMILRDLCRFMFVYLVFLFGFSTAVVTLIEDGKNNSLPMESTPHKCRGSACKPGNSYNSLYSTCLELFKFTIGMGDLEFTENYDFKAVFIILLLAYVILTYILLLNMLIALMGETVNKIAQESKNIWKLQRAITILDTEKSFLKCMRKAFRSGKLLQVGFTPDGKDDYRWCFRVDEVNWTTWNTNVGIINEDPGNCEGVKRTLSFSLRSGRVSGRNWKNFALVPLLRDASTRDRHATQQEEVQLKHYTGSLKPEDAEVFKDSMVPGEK
Assay: Agonist-enhancing activity at TRPV1 receptor in E15 rat primary dorsal root ganglion cells assessed as capsaicin-induced 45Ca2+ influx by microplate liquid scintillation counter relative to capsaicin alone
Type: functional, tissue-based
# if measured Emax < 200%: condition met  # else: condition not met

Use these answered entries as a reference point.
compound: CCCC1C(C(=O)OCC)=C(c2ccccc2)N=C(C)/C1=C(/O)SCC (stereo not drawn)
assigned.category: condition not met

compound: CCOC(=O)C1=C(C)NC(c2ccc(F)cc2)=C(C(=O)OCC)C1CC (racemic)
assigned.category: condition met

compound: CCOC(=O)C1=C(c2ccc([N+](=O)[O-])cc2)NC(C)=C(C(=O)SCCc2ccccc2)C1CC (racemic)
assigned.category: condition met

compound: CCOC(=O)C1=C(C)NC(c2cccc(Cl)c2)=C(C(=O)OCC)C1CC (racemic)
assigned.category: condition not met

compound: CCCC1C(C(=O)SCCc2ccccc2)=C(C)NC(c2ccccc2)=C1C(=O)OCC (racemic)
assigned.category: condition not met

Now, please, on to the next compound.
Dear colleague, could you confirm whether Emax of CCOC(=O)C1=C(c2ccc(F)cc2)NC(C)=C(C(=O)SCCc2ccccc2)C1CC (racemic) falls below 200%? Thanks. condition met

* * *

Measured Ki by item
Sequence of the target: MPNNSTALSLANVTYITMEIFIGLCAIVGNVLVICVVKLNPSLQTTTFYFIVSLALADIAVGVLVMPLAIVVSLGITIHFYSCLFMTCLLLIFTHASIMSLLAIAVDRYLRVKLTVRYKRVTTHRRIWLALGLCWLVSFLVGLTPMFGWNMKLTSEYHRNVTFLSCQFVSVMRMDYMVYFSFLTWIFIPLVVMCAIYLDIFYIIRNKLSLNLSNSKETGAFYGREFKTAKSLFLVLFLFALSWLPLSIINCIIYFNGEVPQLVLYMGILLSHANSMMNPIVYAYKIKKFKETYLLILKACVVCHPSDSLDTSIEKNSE
# output: bare number, implied unit µM

compound: CCOC(=O)C1=C(c2ccccc2)N=C(C)/C(=C(/O)OCC)C1C(OC)OC (configuration not stated)
Ki / µM: 15.3

Would you kindly share the measured Ki for CCOC(=O)C1=C(c2ccccc2)N=C(C)/C(=C(/O)SCCOC)C1CC (configuration not stated) ? 4.58
